Molecular target: Ybr033w (UniProt P38073)
Sequence: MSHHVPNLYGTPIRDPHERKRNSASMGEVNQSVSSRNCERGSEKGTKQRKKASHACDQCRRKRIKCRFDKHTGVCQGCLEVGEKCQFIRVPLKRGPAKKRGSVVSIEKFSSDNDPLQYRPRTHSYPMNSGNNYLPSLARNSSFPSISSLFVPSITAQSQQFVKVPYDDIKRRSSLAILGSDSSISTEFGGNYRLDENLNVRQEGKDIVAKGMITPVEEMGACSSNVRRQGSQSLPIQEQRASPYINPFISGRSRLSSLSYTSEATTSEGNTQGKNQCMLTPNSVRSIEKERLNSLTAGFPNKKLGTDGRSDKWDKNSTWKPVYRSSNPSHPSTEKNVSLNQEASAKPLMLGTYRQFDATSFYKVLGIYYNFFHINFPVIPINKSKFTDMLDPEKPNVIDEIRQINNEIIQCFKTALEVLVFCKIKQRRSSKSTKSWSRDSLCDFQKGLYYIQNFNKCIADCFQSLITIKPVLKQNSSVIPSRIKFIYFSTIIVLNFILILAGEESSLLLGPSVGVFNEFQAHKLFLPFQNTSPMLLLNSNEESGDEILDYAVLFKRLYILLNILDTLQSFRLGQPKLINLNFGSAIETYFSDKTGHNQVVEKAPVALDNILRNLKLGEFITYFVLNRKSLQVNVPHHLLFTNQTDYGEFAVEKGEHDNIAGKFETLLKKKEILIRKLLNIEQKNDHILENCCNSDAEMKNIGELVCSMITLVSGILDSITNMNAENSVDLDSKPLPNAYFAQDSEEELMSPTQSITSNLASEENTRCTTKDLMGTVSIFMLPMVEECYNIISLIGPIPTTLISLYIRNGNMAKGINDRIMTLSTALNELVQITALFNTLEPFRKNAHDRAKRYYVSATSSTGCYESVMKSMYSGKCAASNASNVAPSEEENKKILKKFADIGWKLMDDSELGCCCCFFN
Assay: PBM E-score (8-mer binding enrichment) (E-score (-0.5 to 0.5)); higher = stronger / more preferred TF binding
Settings: protein concentration: 200 nM; construct: GST-full length
The full ranking holds about 33,000 sequences; the median of “E-score (-0.5 to 0.5)” is about -0.012, and the highest 2% start at about 0.29. For the sample, the highest values were picked, then their nearest neighbours and some sequences at random.
Binary call on PBM E-score: Criterion met from 0.2 upward, Criterion not met beneath that.

>>> group("CTTAAACA")
"Criterion not met"
>>> group("CATTAATA")
"Criterion met"
>>> group("CTTAAATA")
"Criterion not met"
>>> group("ATATAAAT")
"Criterion met"
>>> group("CGAATAGA")
"Criterion not met"

Would you say ATTAAATC shows PBM E-score at minimum 0.2?
Criterion met

Also check ATTAAATA
Criterion met

Also check ACTTAATC
Criterion met

Also check ATTAAAAA
Criterion met

Also check GATTAATA
Criterion met

Also check AAATAACT
Criterion met
